Data provenance: patent US20170360726A1

Below, each of the molecules is paired with its reported IC50 value.
- Test system: TDP-43 inclusions in PC12 cells stably expressing wild type (WT) TDP-43-GFP
- assay_explanation: Dose response assay for TDP-43 inclusion inhibition
- Type: cell-based
- applied_conditions: Rattus norvegicus, PC-12; inhibition of TDP-43 inclusions, PC12 cells expressing WT TDP-43-GFP, 12-point dose response, fluorescent microscopy; read-out: IC50

>  <molecule>
CCc1cccc(C)c1NS(=O)(=O)c1ccccc1C(=O)N1CCCC1 [Compound 100]

>  <target_desc>
TDP-43 inclusions in PC12 cells stably expressing wild type (WT) TDP-43-GFP

>  <measured_value>
> 500 nM

$$$$

Now turn to the next molecule.
Enquiry: IC50 for CCc1cccc(C)c1NS(=O)(=O)c1cnccc1C(=O)N1CCCC1 [Compound 101] ?
Return: < 100 nM
